TESTED SYSTEM: human B1R (bradykinin receptor 1) (Homo sapiens)
Construct: expressed in transfected cells; host or cells: CHO K1 cells
Sequence (P46663 whole entry): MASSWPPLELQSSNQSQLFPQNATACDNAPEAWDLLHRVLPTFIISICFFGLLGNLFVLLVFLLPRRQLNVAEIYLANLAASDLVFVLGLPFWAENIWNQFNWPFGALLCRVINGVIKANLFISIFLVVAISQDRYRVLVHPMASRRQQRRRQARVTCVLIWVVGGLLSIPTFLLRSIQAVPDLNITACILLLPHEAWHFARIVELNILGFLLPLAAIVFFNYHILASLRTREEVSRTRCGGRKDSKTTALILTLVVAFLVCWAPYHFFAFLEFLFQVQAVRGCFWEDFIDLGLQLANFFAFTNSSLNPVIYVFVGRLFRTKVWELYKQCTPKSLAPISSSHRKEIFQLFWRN
ASSAY REMARKS: FLIPR Ca2+ assay (Fluo-4) on CHO K1 cells stably transfected with the human B1R gene (hB1R cells): % inhibition at 10 μM / IC50, agonist Lys-Des-Arg9-bradykinin
Format: cell-based
CONDITION NOTES: CHO-K1, human B1R
MEASURE NAME: inhibition at 10 µM (%)

Use the examples below as a reference point.
{"COMPOUND": "CC1(C)Cc2ccc(C(=O)N3CCC4(CC3)CCN(c3ccncc3)CC4)cc2C1NC(=O)c1cc(F)ccc1Cl (centres unmarked)", "TESTED SYSTEM": "human B1R (bradykinin receptor 1) (Homo sapiens)", "UOM": "%", "inhibition at 10 µM": 97}
{"COMPOUND": "O=C(NC1CCc2ccc(C(=O)N3CCC4(CCN(c5ccncc5)CC4)C3)cc21)c1cc(F)ccc1Cl (centres unmarked)", "TESTED SYSTEM": "human B1R (bradykinin receptor 1) (Homo sapiens)", "UOM": "%", "inhibition at 10 µM": 100}
{"COMPOUND": "O=C(N[C@@H]1CCc2ccc(C(=O)N3CCC4(CC3)CCN(c3ccncc3)C4)cc21)c1ccccc1Cl", "TESTED SYSTEM": "human B1R (bradykinin receptor 1) (Homo sapiens)", "UOM": "%", "inhibition at 10 µM": 100}

A: O=C(N[C@@H]1CCc2ccc(C(=O)N3CCC4(CCN(c5ccncc5)CC4)C3)cc21)c1cc(F)ccc1Cl
B: O=C(NC1CCc2ccc(C(=O)N3CCC4(CCN(Cc5ccc(F)cc5Cl)CC4)C3)cc21)c1ccccc1Cl (centres unmarked)
Exam item: Please state the entry with greater inhibition at 10 µM among A and B . Kindly state the label of the option you pick.
Marked response: A
(A: 99%, B: 7%)
